Assay details: Plasma pharmacokinetics
Type: in vivo, human
Condition context: human, plasma, intravenous, 350 mg
Result type: Tmax

Please report the recorded Tmax for CC[C@@H]1C(=O)N(C)c2cnc(Nc3ccc(C(=O)N[C@H]4CC[C@H](N5CCN(CC6CC6)CC5)CC4)cc3OC)nc2N1C(C)C [Volasertib] .
1.97 h

====

Assay details: Plasma pharmacokinetics
Format: in vivo, human
Condition context: human, plasma, intravenous, 400 mg
Result type: half-life (h)
Report the value in h with no unit label.

Look up half-life: CC[C@@H]1C(=O)N(C)c2cnc(Nc3ccc(C(=O)N[C@H]4CC[C@H](N5CCN(CC6CC6)CC5)CC4)cc3OC)nc2N1C(C)C [Volasertib]
130
